Molecular target: hRIPK1 (aa 1-375) fusion protein (Homo sapiens, UniProt Q13546)
Construct: hRIPK1 (aa 1-375) fusion protein
Sequence (Q13546 1-375): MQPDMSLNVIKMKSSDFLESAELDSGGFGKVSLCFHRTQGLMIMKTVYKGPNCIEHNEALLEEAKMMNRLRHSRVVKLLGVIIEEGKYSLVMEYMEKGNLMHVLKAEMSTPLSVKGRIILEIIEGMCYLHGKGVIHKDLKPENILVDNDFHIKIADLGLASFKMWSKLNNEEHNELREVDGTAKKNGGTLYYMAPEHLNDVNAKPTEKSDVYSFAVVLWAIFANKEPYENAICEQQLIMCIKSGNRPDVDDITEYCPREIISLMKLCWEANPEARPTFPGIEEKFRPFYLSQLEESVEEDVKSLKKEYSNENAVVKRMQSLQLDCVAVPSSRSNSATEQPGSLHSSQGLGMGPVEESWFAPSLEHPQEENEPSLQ
Assay: ADP-Glo kinase assay: catalytic activity of RIPK1 (autophosphorylation, conversion of ATP to ADP)
property-name: pIC50
Hey, just a heads up that pIC50 is the negative log base 10 of the concentration in molar.

Some solved entries appear below for comparison.
# compound, test-result
data = [
    ("Cc1nccn1-c1cc(F)cc(C[C@H]2CC[C@H](C(=O)N3OCC[C@H]3c3cncc(C#N)c3)CC2)c1 [compound 210]", 7.77),
    ("Cc1ccc([C@@H]2CCON2C(=O)[C@H]2CC[C@H](Cc3cc(F)c4nc(C)cn4c3)CC2)cn1 [compound 351]", 6.68),
    ("O=C([C@H]1CC[C@H](Cc2cncc(F)c2)CC1)N1OCC[C@H]1c1cnccn1 [compound 147]", 7.57),
]

Qu. Query (compound): Cc1ccc(C[C@H]2CC[C@H](C(=O)N3OCC[C@H]3c3cnccn3)CC2)cc1C#N [compound 139] ; field requested: pIC50
Ans. 8.00

Qu. Need pIC50 of Cc1c(C#N)ncn1C[C@H]1CC[C@H](C(=O)N2OCC[C@H]2c2cc(F)cc(C#N)c2)CC1 [compound 90] , thanks.
Ans. 7.12

Qu. Given Cc1nccn1-c1cc(F)cc(C[C@H]2CC[C@H](C(=O)N3OCC[C@H]3c3cnccn3)CC2)c1 [compound 209] , state its recorded pIC50.
Ans. 7.66

Qu. Looking for the measured pIC50 of NC(=O)c1ccc2c(ccn2C[C@H]2CC[C@H](C(=O)N3OCC[C@H]3c3cnccn3)CC2)c1 [compound 251] , can you help?
Ans. 8.10

Qu. For the compound shown here, Cc1ccc([C@@H]2CCON2C(=O)[C@H]2CC[C@H](Cc3cc(C)ncc3F)CC2)cn1 [compound 386] , give the reported pIC50.
Ans. 7.60
